Target: NHERF4_4, Q86UT5
Sequence (Q86UT5 464-550): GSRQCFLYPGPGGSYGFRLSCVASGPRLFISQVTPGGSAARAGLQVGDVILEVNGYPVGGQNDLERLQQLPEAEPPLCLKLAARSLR
Test: holdup assay
Parameters: key: below the threshold = too weak to quantify, mostly under pKd 3.1 to 4
Conditions: plain residues with an end cap or a label only (N-terminal biotin on a linker: ttds)
reported_endpoint: pKd

GRLLGLETNV [ARHGEF26, Q96DR7] has a reported pKd of below the threshold

Item: PPRQRSETQV [HPV82-E6, Q9IR59] | pKd: below the threshold

For SSIDLWETAL [SLC15A5, A6NIM6] the binder record lists pKd as 4.4

// pKd lookup, binder = KQVVPFSSSV [GDA, Q9Y2T3] , result: below the threshold
